target: Cytochrome P450 3A4 (Homo sapiens) (UniProt P08684); test: Cytochrome panel assay with activity outcomes; settings: recombinant CYP, pro-luciferin dealkylation, luminescence, p450-cyp3a4; series mostly up to 57.1 µM; on activity, negative = inhibition: on the % scale 0 is the no-effect control and ±100 the full control effect
Sequence (P08684 whole entry, looked up): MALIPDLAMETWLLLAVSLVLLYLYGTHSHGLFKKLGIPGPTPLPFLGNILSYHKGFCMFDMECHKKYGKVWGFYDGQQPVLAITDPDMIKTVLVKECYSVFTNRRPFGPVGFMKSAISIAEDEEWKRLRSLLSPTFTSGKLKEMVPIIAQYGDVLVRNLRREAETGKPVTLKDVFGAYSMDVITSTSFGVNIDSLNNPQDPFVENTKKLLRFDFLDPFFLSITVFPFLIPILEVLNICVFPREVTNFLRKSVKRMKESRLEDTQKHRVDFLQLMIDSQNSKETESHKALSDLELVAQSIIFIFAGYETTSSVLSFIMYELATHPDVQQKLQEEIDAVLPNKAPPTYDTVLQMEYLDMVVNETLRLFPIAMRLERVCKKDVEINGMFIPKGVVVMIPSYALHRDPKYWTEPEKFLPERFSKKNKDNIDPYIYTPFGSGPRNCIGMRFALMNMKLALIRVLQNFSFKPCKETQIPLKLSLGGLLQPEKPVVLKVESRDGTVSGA
Among all 16,000 compounds or so, about 5,100 (32%) were called active. About 25% were inconclusive and are not listed. The list shows a part of the results.
recorded-endpoint: activity, negative = inhibition

Cc1nc2cccc([N+](=O)[O-])c2n1CCCN(C)C
-0.756% [at 11.4 µM] (inactive)
O=C(O)CSc1ccn(Cc2ccccc2)c1
-1.15% [at 11.4 µM] (inactive)
CS(=O)(=O)c1ccc(/C=N\NC(N)=S)cc1
-4.4% [at 11.4 µM] (inactive)
O=C1CC[C@H](NC(=O)c2ccccc2)C(=O)N1
-12.3% [at 11.4 µM] (inactive)
NS(=O)(=O)c1ccc(N=Nc2c(O)c(C(=O)O)cc3ccccc23)cc1
-2.48% [at 11.4 µM] (inactive)
CCOC(=O)c1[nH]c(C)c(C(=O)OCC(=O)N2c3ccccc3CC2C)c1C (configuration not stated)
-26.3% [at 2.29 µM] (inactive)
FC(F)(F)c1cc(Sc2ccccc2)nc(-c2ccccn2)n1
22.3% [at 11.4 µM] (inactive)
CC(C)(C)c1ccc(OCC(=O)O)c(Cl)c1
-2.41% [at 11.4 µM] (inactive)
COc1cc(=O)n2c(n1)SCCC2
-0.256% [at 2.29 µM] (inactive)
COc1ccc(C2N=C(N)N=C(N)N2c2ccccc2OC)cc1OC (configuration not stated)
-8.43% [at 2.29 µM] (inactive)
O=C(CCC(=O)Nc1ccccc1)NNC(=O)c1cccs1
9.11% [at 2.29 µM] (inactive)
Cc1ccc(C)c(Nc2nc3nonc3nc2N2CCOCC2)c1
-12.1% [at 2.29 µM] (inactive)

* * *

biological target: Cytochrome P450 3A4 (Homo sapiens) (UniProt P08684); test: Cytochrome panel assay with activity outcomes; settings: recombinant CYP, pro-luciferin dealkylation, luminescence, p450-cyp3a4; series mostly up to 57.1 µM
Screen size: about 16,000 compounds; about 5,100 (32%) were called active. Roughly 25% stayed inconclusive and do not appear here. The call rests on the fitted dose curve; in most records, active means well fitted curve in the direction sought with a large enough effect; inconclusive means small, poorly fitted or top-dose-only effect, or effect the other way; inactive means no such curve, though single readings can be large or run the other way. Some of the results follow.
Outcome codes: active, inactive

COc1ccc(-c2[nH]c(-c3ccc(C(=O)O)cc3)nc2-c2ccccc2)cc1
inactive
C/C(CCN1CCCc2nc(C)c(C)cc21)=N\O[C@@H](C)c1cn([C@H](CO)Cc2ccccc2)nn1
active
CN(C)C(=O)c1ccc(-c2cc(N(C)Cc3ccco3)ncn2)cc1
inactive
Fc1ccc(Nc2nc(-c3ccoc3)nc3ccccc23)cc1
active
COc1ccc2[nH]cc(CCNc3ncncc3-c3ccccc3Cl)c2c1
active
COc1cccc(NC(=O)c2oc3ccccc3c2NC(=O)c2ccc3c(c2)OCO3)c1
active
CCOc1ccc(NC(=O)c2oc3ccccc3c2NC(=O)CC)cc1
active
COCCn1c(=O)c(-c2ccccc2)nc2cncnc21
inactive
CN(C)Cc1cc(C(F)(F)F)ccc1C(O)(c1ccccc1)c1ccccc1
active
c1ccc2c(NC3CC3)nc(-c3ccoc3)nc2c1
active
Cc1ccccc1Oc1ccc(-c2nc(N)nc(N)n2)cc1
inactive
Cc1ccc(NC2=NC(c3ccccc3)n3c(nc(C)cc3=O)N2)c(C)c1 (stereo not drawn)
active
Cc1cccc(C)c1NC(=S)NC(=O)CCc1ccccc1
active
COC(=O)c1c(-c2ccc3ccccc3c2)csc1NC(=O)Cc1ccc(OC)c(OC)c1
active
COc1cccc(NC(=O)c2oc3ccccc3c2NC(C)=O)c1
active
Cc1noc(C)c1-c1ccc2ncnc(N(C)C)c2c1
inactive
COc1cc2c(cc1OC)-c1cc3ccc(OC)c(OC)c3c[n+]1CC2
inactive
O=C(OCCNC(=O)c1ccc2ccccc2n1)c1ccc(F)cc1
active
c1ccc(-c2nc(-c3cccs3)[nH]c2-c2ccccc2)cc1
active
Cc1ccsc1-c1nc(-c2ccccc2)c(-c2ccccc2)[nH]1
active
c1ccc2c(NC3CCNCC3)nc(-c3ccoc3)nc2c1
inactive
CC[N+](CC)(CC(=O)Nc1c(C)cccc1C)Cc1ccccc1
inactive
COc1ccccc1CCn1c(=O)c(-c2ccc(F)c(F)c2)nc2cncnc21
active

* * *

target: Cytochrome P450 3A4 (Homo sapiens); assay: Cytochrome panel assay with activity outcomes; details: recombinant CYP, pro-luciferin dealkylation, luminescence, p450-cyp3a4; series mostly up to 57.1 µM
In all, about 16,000 compounds went through this assay and about 5,100 (32%) were called active. Not shown: some 25% with an inconclusive outcome. Calls come from the whole dose curve; as a rule, active = well fitted curve in the direction sought with a large enough effect; inconclusive = small, poorly fitted or top-dose-only effect, or effect the other way; inactive = no such curve, though single readings can be large or run the other way. The list shows a part of the results.
Outcome codes: class 1 = active, class 0 = inactive

CCN(CC)C(=O)c1sc2[nH]c(=S)n(-c3ccccc3)c(=O)c2c1C
class 0
COc1cc(/C=C(\C#N)C(=O)NCC2CCCO2)c([N+](=O)[O-])cc1OC (centres undefined)
class 0
CC(=O)Nc1nnc(CCN2CCCCC2)s1
class 0
CCN(CC)C(=O)C1=C(C)NC(=S)NC1c1cn(-c2ccccc2)nc1-c1ccc(Cl)cc1 (centres undefined)
class 1
CCc1cccc2c(-c3ccccc3)c3c(nc12)OCC3
class 0
O=C(c1ccc(F)cc1)C1CCN(C(=S)Nc2ccccc2)CC1
class 1
COc1ccc(C[C@@H]2C(=O)N[C@H](C)C(=O)N(C)[C@@H]3Cc4ccc(cc4)Oc4cc(ccc4O)C[C@H](C(=O)N[C@@H](C)C(=O)N[C@H](C)C(=O)N2C)N(C)C3=O)cc1
class 1
c1csc(CNc2ccnc(-c3ccoc3)n2)c1
class 1
COCC(=O)N1CCC[C@@]2(CCN(c3ncccn3)C2)C1
class 0
COc1cccc(Nc2ncc3nc(-c4ccccc4)c(=O)n(Cc4cccs4)c3n2)c1
class 0
N[C@@H](Cc1cc(CP(=O)(O)O)cc(-c2ccccc2Cl)c1)C(=O)O
class 0
O=C1C2C3C=CC(C3)C2C(=O)N1/N=C/c1cn(Cc2ccc(F)cc2)c2ccccc12 (centres undefined)
class 1
NC(=O)/C(=N\OC(=O)c1ccco1)c1nc(-c2ccc(Br)cc2)cs1
class 0
c1ccc2nc(-c3ccncc3)ccc2c1
class 1
C=CCNC(=S)N/N=C/c1ccc(OCc2ccccc2)cc1
class 0
CCCNc1c(F)c(F)c2c(C)c3ccccc3nc2c1F
class 1
COCCNc1nc(-c2cccc(OC)c2)nc2ccccc12
class 1
Cc1[nH]c2ccccc2c1C(c1ccccn1)N1CCC(C)CC1 (centres undefined)
class 1
OC[C@@H]1NC[C@@H](O)[C@H]1O
class 0
c1ccc2cc(-c3csnn3)ccc2c1
class 0
c1ccc2nc(C3=NCCN3)ccc2c1
class 0
Cc1cccc(C(=O)N/N=C/c2ccc(OCC(=O)N3CCCCC3)cc2)c1
class 1
CCN(CC)C(=O)N1CCN(C)CC1
class 0
N#Cc1c(-c2ccc(Cl)cc2)nc2n(c1=O)CCCS2
class 0
c1cncc(-c2nccc(NCc3cccs3)n2)c1
class 1
CC(C)(Sc1ccc(CCN(CCCCC2CCCCC2)C(=O)NC2CCCCC2)cc1)C(=O)O
class 1
CCc1nc(SCC(=O)NNC(=O)C2CCCCC2)c2ccccc2n1
class 0
COc1cccc(-c2nc(NC3CC3)c3ccccc3n2)c1
class 1
COC(=O)[C@@]1(Cc2ccccc2)[C@H]2c3cc(C(=O)N4CCCC4)n(Cc4ccsc4Br)c3C[C@H]2CN1C(=O)c1ccccc1
class 1
O=C(CNC(=O)c1ccc([N+](=O)[O-])cc1)c1ccccc1
class 0
CCCCn1c(SCC(=O)Nc2nccs2)nc2ccccc2c1=O
class 1
Cc1cc(NC(=O)CSc2nc3ccccc3c(=O)n2CCCC(=O)NCc2ccco2)n[nH]1
class 1
O=C(Nc1ccc(F)cc1)c1cc(S(=O)(=O)N2CCCCC2)cs1
class 1
CN(C)c1ccc(-c2nccc(NCc3cccs3)n2)cc1
class 1
O=C(CSc1ccccc1C(=O)O)NCc1ccco1
class 0
CC[N+](CC)(CC)CC[C@](O)(c1ccccc1)C1CCCCC1
class 0
NC(=O)c1ncn([C@@H]2O[C@@H](CO)[C@@H](O)[C@H]2O)c1O
class 0
N#Cc1c(NC(=O)CCN2C(=O)c3ccccc3C2=O)oc(-c2ccccc2)c1-c1ccccc1
class 1
C=CCNC(=S)Nc1ccc2nc(C)c(C)nc2c1
class 1
Cc1ccc(C(=O)N/C(=C\c2ccc([N+](=O)[O-])cc2)C(=O)NCCc2ccccc2)cc1
class 1
CCCc1nc(SCC(=O)NNC(=O)C2CCCCC2)c2ccccc2n1
class 1
CCc1nnc(NC(=O)CSc2nc(C3CCCCC3)nc3ccccc23)s1
class 1
NC(N)=Nc1nc(CCN2C(=O)c3ccccc3C2=O)cs1
class 0
COC(=O)[C@@]1(Cc2ccccc2)[C@H]2c3cc(C(=O)N(C)C)n(Cc4ccsc4Br)c3C[C@H]2CN1C(=O)c1ccccc1
class 1

* * *

biological target: Cytochrome P450 3A4 (Homo sapiens); assay: Cytochrome panel assay with activity outcomes; settings: recombinant CYP, pro-luciferin dealkylation, luminescence, p450-cyp3a4; series mostly up to 57.1 µM
In all, about 16,000 compounds went through this assay and about 5,100 (32%) were called active. Roughly 25% stayed inconclusive and do not appear here. Calls follow the shape of the dose curve; as a rule, active = well fitted curve in the direction sought with a large enough effect; inconclusive = small, poorly fitted or top-dose-only effect, or effect the other way; inactive = no such curve, though single readings can be large or run the other way. Some of the results follow.
Outcome codes: 1 (active), 0 (inactive)

COC(=O)[C@@H]1C[C@H]1[C@@H](NC(C)=O)c1ccccc1
0
Cc1ccc(-n2c(-c3ccccc3)cc(=O)nc2C)cc1
0
CCCn1c(-c2ccccc2)nc2c(=O)n(C)c(=O)[nH]c21
0
CN(C(=O)c1c(O)c2ccccc2n(C)c1=O)c1ccccc1
0
CN(C)CCNc1oc(COc2ccc(Cl)cc2Cl)nc1C#N
0
COC(=O)c1ccc(/C=N\NC(=O)c2ccc(C)cc2Cl)cc1
1
Cc1ccc(-c2nc3c(=O)n(C)c4ccccc4c3o2)cc1
1
COc1cccc(Nc2nc(-c3ccc(O)cc3)cs2)c1
1
Cn1c(=O)c2nc(-c3ccccc3)oc2c2ccccc21
1
Cc1ccc(C(=O)N/N=C/c2ccc(S(=O)(=O)O)o2)c(Cl)c1
0
COc1ccccc1CNc1cc(-c2ccoc2)ncn1
1
COc1ccc(-c2ccc(C(=S)N3CCN(C(C)=O)CC3)o2)cc1
1
